tested-system: T1, human GITR on naïve CD4+ T cells (human, UniProt Q9Y5U5 26-241)
T1 sequence: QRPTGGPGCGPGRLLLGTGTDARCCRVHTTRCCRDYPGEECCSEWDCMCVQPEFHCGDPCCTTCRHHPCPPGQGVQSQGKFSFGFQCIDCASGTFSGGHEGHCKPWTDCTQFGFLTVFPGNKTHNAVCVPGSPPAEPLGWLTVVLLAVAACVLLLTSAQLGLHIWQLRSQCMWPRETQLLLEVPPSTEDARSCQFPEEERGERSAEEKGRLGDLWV
assay-explanation: cell-based or functional assay
Documented proliferation of naïve CD4+ T cells, mean, at 0.4 ng/mL Ab across a set of binders
I only need the number, thanks.

1) 35D8 (antibody, V domains shown, Parental rodent anti-human GITR monoclonal antibody from a hybridoma; kappa VL; also called 35D8.B10) VH: EVQLQESGPSLVKPSQTLSLTCSVTGDSITSGYWNWIRKFPGNKLEYMGYISYSGSTYYNPSLRGRISITRDTSKSQYYLQLSSVTTEDTATYYCSRRHLGSGYGWFAYWGQGTLVTVSA VL: DIVMTQSHKFMSTSVGDRVSITCKASQDVNTAVAWYQQKPGQSPKLLIYWASTRHTGVPDRFTGSGSGTDYALTINSVQAEDLALYYCQQHSYTPPWTFGGGTKLEIRR :: 52300

Asked: What value of proliferation of naïve CD4+ T cells, mean, at 0.4 ng/mL Ab has been reported for the following binder? 17F10 (antibody, V domains shown, Parental rodent anti-human GITR monoclonal antibody from a hybridoma; kappa VL; also called 17F10.B1) VH: EVKLVESGGGFVKPGGSLKLSCAASGFTVRNYAMSWVRQTPEKRLEWVASISTGDRSYLPDSMKGRFTISRDNARNILYLQMSSLRSEDTAIYYCQRYFDFDSFAFWGQGTLVTVSA VL: DIQMTQTPSSLSASLGDRVTISCRASQDINNFLNWYQQKPDGSLKLLIYYTSKLHSGVPSRFSGSGSGTDFSLTISNLDQEDVATYFCQQGHTLPPTFGGGTKLEVKR
Given back: 58700

Asked: What do you have for 9E5 (antibody, V domains shown, Parental rodent anti-human GITR monoclonal antibody from a hybridoma; kappa VL; also called 9E5.C1) VH: QVTLKESGPGILQPSQTLSLTCTFSGFSLSTYGVGVGWIRQPSGKGLEWLANIWWDDDNYYNPSLIHRLTVSKDTSNNQAFLKITNVDTAETATYYCAQIKEPRDWFFEFWGPGTMVSVSS VL: DIQMTQTPSSMPASLGERVTIFCRASQGVNNFLTWYQQKPDGTIKPLIFYTSNLQSGVPSRFSGSGSGTDYSLSISSLEPEDFAMYYCQQYHGFPNTFGAGTKLELKR ?
Given back: 60100
